Molecular target: human adenosine transporter (Homo sapiens, UniProt Q99808)
Construct: homogenates of U-937 cell culture (American Tissue Culture Compository), expressing the human (es) transporter; endogenous in cells; host or cells: U-937 (human) cell membrane homogenates
Sequence (Q99808 whole entry): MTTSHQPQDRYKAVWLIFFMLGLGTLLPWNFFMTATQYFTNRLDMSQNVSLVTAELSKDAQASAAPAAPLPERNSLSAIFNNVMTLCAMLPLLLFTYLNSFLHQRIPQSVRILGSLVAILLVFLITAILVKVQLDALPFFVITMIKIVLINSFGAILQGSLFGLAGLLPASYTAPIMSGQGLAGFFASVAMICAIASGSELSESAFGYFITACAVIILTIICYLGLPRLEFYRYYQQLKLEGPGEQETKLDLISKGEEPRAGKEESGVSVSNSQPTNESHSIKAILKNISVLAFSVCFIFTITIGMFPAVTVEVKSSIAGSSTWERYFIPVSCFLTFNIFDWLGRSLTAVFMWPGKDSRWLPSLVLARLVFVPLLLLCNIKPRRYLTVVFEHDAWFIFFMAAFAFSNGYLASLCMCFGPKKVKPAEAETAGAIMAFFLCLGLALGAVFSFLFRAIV
Assay: Displacement of [3H]NBTI binding in U-937 cell homogenates
Settings: [3H]NBTI 2-4 nM; 50 mM TRIS pH 7.5, 4° C., 1.5 h; Cheng-Prusoff; mean ± SEM; read-out: Affinity (Ki μM)
assay-metric: Ki (µM)

compound	assay-metric	observed-measurement
O=C(C=Cc1ccc(Cl)cc1)OC1CC2(O)CC(OC2=O)C1OC(=O)C=Cc1ccc(Cl)cc1 (stereo not shown) [3,4-di(4-chlorocinnamoyl)-1,5-quinide]	Ki	1.3
O=C(C=Cc1ccc(O)cc1)OC1CC2(O)CC(OC2=O)C1OC(=O)C=Cc1ccc(O)cc1 (stereo not shown) [3,4-dicoumaroyl-1,5-quinide]	Ki	0.96

[1] O=C(C=Cc1ccc(O)c(O)c1)OC1CC2(O)CC(OC2=O)C1OC(=O)C=Cc1ccc(O)c(O)c1 (stereo not shown) [3,4-dicaffeoyl-1,5-quinide]
[2] COc1cc(C=CC(=O)OC2CC3(O)CC(OC3=O)C2OC(=O)C=Cc2ccc(O)c(OC)c2)ccc1O (stereo not shown) [3,4-diferuloyl-1,5-quinide]
Task: For the two items 1 and 2 , which reports the higher Ki value? State your choice using its label.
Output: 1
